assay: Novel Modifiers of Survival Motor Neuron (SMN) Protein: Gene Identification via Genome-wide siRNA Screen; conditions: HEK293T SMN2-luciferase reporter, siRNA knockdown, 72 h; actives lie on both sides;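 further: luminescence tracks full-length SMN protein made from the SMN2 reporter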
Screen size: about 31,000 sequences; about 1,400 (4.5%) were called active. This is one part of a sample in which actives are shown more often than they occur.
Provide the reported median seed-adjusted z-score of each item.
Give the figure by itself; no unit, no explanation.

Give the measured median seed-adjusted z-score of CAUCAAAUAUGACAACUUUTT against GALNTL4 . 0

Also need CAAAUACCGUUAAGCUGGATT against HBA1 , thanks. -1.03

Also need GAUUGGUGGUUGGAACAUUTT against ECE2 , thanks. 0.794

Also need CGUGGACUCCCACUUCCAATT against OGG1 , thanks. -0.128

Also need GAACCACUAUGAUCAUUGATT against DPYSL2 , thanks. -0.569

Also need GAUGAUUACAUAUCAGAGATT against ZNF630 , thanks. -0.533
